# assay-target: T1, DR3-8i (human)
# T1 construct: also called purified monomeric DR3-8i antigen protein
# T1 chain: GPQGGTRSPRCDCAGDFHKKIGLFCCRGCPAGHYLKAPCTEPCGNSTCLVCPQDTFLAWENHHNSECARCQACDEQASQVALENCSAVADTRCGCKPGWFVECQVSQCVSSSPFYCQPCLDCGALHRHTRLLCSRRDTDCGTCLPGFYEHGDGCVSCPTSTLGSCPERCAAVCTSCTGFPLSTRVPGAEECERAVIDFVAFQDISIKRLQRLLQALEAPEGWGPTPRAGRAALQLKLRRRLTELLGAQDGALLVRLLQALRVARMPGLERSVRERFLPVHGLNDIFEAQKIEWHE
# protocol-details: BLI, IgG captured on protein A, DR3-8i in solution; Experiment 1
pKd: −log10 of the molar value.

binder	pKd
VHg6/VLg4 (antibody, human IgG1, V domains shown, human IgG1) VH: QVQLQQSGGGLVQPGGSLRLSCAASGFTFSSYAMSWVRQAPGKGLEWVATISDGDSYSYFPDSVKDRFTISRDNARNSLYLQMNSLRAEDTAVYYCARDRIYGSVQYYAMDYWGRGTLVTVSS VL: DVVMTQSPDSLAVSLGERATISCRASESVEFSGTSLMQWYQQKPRQPLKLLIYAASNVESGVPDRFSGSGSGTDFTLTISSLQAEDVAVYYCQQSRKLPYTFGQGTRLEIK	9.60

The measured values listed here are drawn from patent WO2025083273A1.
